Conditions: female, human, plasma, oral, Mycophenolic acid AUC0–12h, with cyclosporine and mycophenolate mofetil; female (n = 14); steady state

| Compound | AUC(0-t) [ng·h/mL] |
| --- | --- |
| COc1c(C)c2c(c(O)c1C/C=C(\C)CCC(=O)O)C(=O)OC2 [Mycophenolic acid] | 40100 |

* * *

Assay: Tacrolimus whole-blood trough concentration
Assay type: in vivo, human (stable renal transplant recipients)
Conditions: male, human, oral

| Molecule | Unit Info | concentration at 0 h |
| --- | --- | --- |
| C=CC[C@@H]1/C=C(\C)C[C@H](C)C[C@H](OC)[C@H]2O[C@@](O)(C(=O)C(=O)N3CCCC[C@H]3C(=O)O[C@H](/C(C)=C/[C@@H]3CC[C@@H](O)[C@H](OC)C3)[C@H](C)[C@@H](O)CC1=O)[C@H](C)C[C@@H]2OC [Tacrolimus] | ng/mL | 7.3 |

* * *

Settings: male, human, plasma, oral
Assay Metric: AUC(0-t) (ng·h/mL)

| Cpd Smiles | Result Value |
| --- | --- |
| COc1c(C)c2c(c(O)c1C/C=C(\C)CCC(=O)O)C(=O)OC2 | 65500 |

* * *

Conditions: female, human, plasma, oral, 546 mg

| Compound | Tmax [h] |
| --- | --- |
| COc1c(C)c2c(c(O)c1C/C=C(\C)CCC(=O)O)C(=O)OC2 [Mycophenolic acid] | 3.16 |

* * *

Conditions: female, human, plasma, oral, Mycophenolic acid AUC0–12h, with tacrolimus and enteric-coated mycophenolate sodium; female (n = 29); steady state

| Compound | AUC(0-t) (ng·h/mL) |
| --- | --- |
| COc1c(C)c2c(c(O)c1C/C=C(\C)CCC(=O)O)C(=O)OC2 [Mycophenolic acid] | 73400 |

* * *

Details: female, human, plasma, oral, 546 mg
Assay Metric: Cmax (ng/mL)

| Compound | Result Value |
| --- | --- |
| COc1c(C)c2c(c(O)c1C/C=C(\C)CCC(=O)O)C(=O)OC2 [Mycophenolic acid] | 21700 |

* * *

Conditions: male, human, plasma, oral, 715 mg

| Compound | Tmax |
| --- | --- |
| COc1c(C)c2c(c(O)c1C/C=C(\C)CCC(=O)O)C(=O)OC2 [Mycophenolic acid] | 1.92 h |

* * *

Details: male, human, plasma, oral, 715 mg

| Cpd Smiles | Cmax [ng/mL] |
| --- | --- |
| COc1c(C)c2c(c(O)c1C/C=C(\C)CCC(=O)O)C(=O)OC2 | 10300 |

* * *

Details: male, human, plasma, oral, Mycophenolic acid CP(12h), with tacrolimus and enteric-coated mycophenolate sodium; male (n = 38); steady state

| Cpd Smiles | concentration at 12 h |
| --- | --- |
| COc1c(C)c2c(c(O)c1C/C=C(\C)CCC(=O)O)C(=O)OC2 | 3900 ng/mL |

* * *

Details: human, plasma, oral, Mycophenolic acid clearance, with tacrolimus; all patients

| Cpd Smiles | Unit Info | clearance |
| --- | --- | --- |
| COc1c(C)c2c(c(O)c1C/C=C(\C)CCC(=O)O)C(=O)OC2 | mL/min | 177 |

* * *

Conditions: female, human, plasma, oral, Mycophenolic acid AUC6–12h, with cyclosporine and mycophenolate mofetil; female (n = 14); estimate of enterohepatic recirculation

| Compound | AUC [ng·h/mL] |
| --- | --- |
| COc1c(C)c2c(c(O)c1C/C=C(\C)CCC(=O)O)C(=O)OC2 [Mycophenolic acid] | 15400 |

* * *

Conditions: female, human, plasma, oral, Mycophenolic acid AUC6–12h, with tacrolimus and enteric-coated mycophenolate sodium; female (n = 29); estimate of enterohepatic recirculation

| Cpd Smiles | Unit Info | AUC |
| --- | --- | --- |
| COc1c(C)c2c(c(O)c1C/C=C(\C)CCC(=O)O)C(=O)OC2 | ng·h/mL | 29300 |

* * *

Conditions: male, human, plasma, oral, Mycophenolic acid CP(12h), with cyclosporine and mycophenolate mofetil; male (n = 66); steady state

| Molecule | Unit Info | concentration at 12 h |
| --- | --- | --- |
| COc1c(C)c2c(c(O)c1C/C=C(\C)CCC(=O)O)C(=O)OC2 [Mycophenolic acid] | ng/mL | 2100 |

* * *

Conditions: male, human, plasma, oral, Mycophenolic acid AUC0–12h, with cyclosporine and mycophenolate mofetil; male (n = 66); steady state
Assay Metric: AUC(0-t) (ng·h/mL)

| Cpd Smiles | Assay Metric | Result Value |
| --- | --- | --- |
| COc1c(C)c2c(c(O)c1C/C=C(\C)CCC(=O)O)C(=O)OC2 | AUC(0-t) | 41000 |

* * *

Test: Tacrolimus whole-blood trough concentration
Assay type: in vivo, human (stable renal transplant recipients)
Conditions: female, human, oral

| Cpd Smiles | concentration at 0 h |
| --- | --- |
| C=CC[C@@H]1/C=C(\C)C[C@H](C)C[C@H](OC)[C@H]2O[C@@](O)(C(=O)C(=O)N3CCCC[C@H]3C(=O)O[C@H](/C(C)=C/[C@@H]3CC[C@@H](O)[C@H](OC)C3)[C@H](C)[C@@H](O)CC1=O)[C@H](C)C[C@@H]2OC | 7.1 ng/mL |

* * *

Details: female, human, plasma, oral, 591 mg

| Cpd Smiles | Unit Info | Tmax |
| --- | --- | --- |
| COc1c(C)c2c(c(O)c1C/C=C(\C)CCC(=O)O)C(=O)OC2 | h | 2.07 |

* * *

Conditions: female, human, plasma, oral, Mycophenolic acid clearance, African American women receiving tacrolimus

| Compound | clearance (mL/min) |
| --- | --- |
| COc1c(C)c2c(c(O)c1C/C=C(\C)CCC(=O)O)C(=O)OC2 [Mycophenolic acid] | 162 |

* * *

Settings: male, human, plasma, oral, Mycophenolic acid AUC6–12h, with cyclosporine and mycophenolate mofetil; male (n = 66); estimate of enterohepatic recirculation
Assay Metric: AUC

| Cpd Smiles | Result Value |
| --- | --- |
| COc1c(C)c2c(c(O)c1C/C=C(\C)CCC(=O)O)C(=O)OC2 | 12600 ng·h/mL |

* * *

Details: female, human, plasma, oral, Mycophenolic acid CP(12h), with tacrolimus and enteric-coated mycophenolate sodium; female (n = 29); steady state

| Cpd Smiles | concentration at 12 h |
| --- | --- |
| COc1c(C)c2c(c(O)c1C/C=C(\C)CCC(=O)O)C(=O)OC2 | 4300 ng/mL |
